- Test system: PC-3 prostate
- ASSAY TEXT: NCI tumour cell line growth inhibition, 48 h; in the data active = GI50 below about 0.43 µM; inactive = the rest
Classes used: YES (active), NO (inactive)

[
  {
    "STRUCTURE SMILES STRING": "COc1ccc(S(=O)(=O)N2CCNCC2)cc1OC",
    "CLASS LABEL": "NO"
  },
  {
    "STRUCTURE SMILES STRING": "c1ccc(C2CCCCC2)c(OCCCCCN2CCNCC2)c1",
    "CLASS LABEL": "NO"
  },
  {
    "STRUCTURE SMILES STRING": "C/C(=N\\NC(=S)N1CCN(c2ccccn2)CC1)c1ncccn1",
    "CLASS LABEL": "YES"
  },
  {
    "STRUCTURE SMILES STRING": "O=C1c2ccccc2C(=O)c2c1cc1c(c2[N+](=O)[O-])OCO1",
    "CLASS LABEL": "NO"
  },
  {
    "STRUCTURE SMILES STRING": "COc1ccc2nc3cc(Cl)ccc3c(N3CCN(c4ccnc(N5CCN(C)CC5)n4)CC3)c2c1",
    "CLASS LABEL": "NO"
  },
  {
    "STRUCTURE SMILES STRING": "COCCOCCOCCOCCOC(=O)OC[n+]1ccc(NC(=NCCCCCCOc2ccc(Cl)cc2)NC#N)cc1",
    "CLASS LABEL": "YES"
  }
]

====

TGI overview
- Test system: MDA-MB-231 breast
- ASSAY TEXT: NCI tumour cell line growth inhibition, 48 h
OBSERVABLE: TGI (µM)

[
  {
    "MOLECULE": "O=[N+]([O-])C(=C/c1cccc2ccccc12)/C(=C\\c1cccc2ccccc12)[N+](=O)[O-]",
    "STUDY TARGET": "MDA-MB-231 breast",
    "OBSERVABLE": "TGI",
    "QUALIFIER": "=",
    "VALUE REPORTED": 5.14
  },
  {
    "MOLECULE": "C/C(N)=N/OCc1nc(C)no1",
    "STUDY TARGET": "MDA-MB-231 breast",
    "OBSERVABLE": "TGI",
    "QUALIFIER": ">",
    "VALUE REPORTED": 100
  },
  {
    "MOLECULE": "COc1ccc(OC)c(Cc2cnc3nc(N)nc(N)c3c2C)c1",
    "STUDY TARGET": "MDA-MB-231 breast",
    "OBSERVABLE": "TGI",
    "QUALIFIER": "=",
    "VALUE REPORTED": 33.8
  },
  {
    "MOLECULE": "CCOP(=O)(OCC)C(Cc1ccc(Cl)cc1)NS(=O)(=O)c1ccc(C)cc1 (stereo not given)",
    "STUDY TARGET": "MDA-MB-231 breast",
    "OBSERVABLE": "TGI",
    "QUALIFIER": ">",
    "VALUE REPORTED": 100
  },
  {
    "MOLECULE": "CN1C(=NCCO)NS(=O)(=O)c2ccccc21",
    "STUDY TARGET": "MDA-MB-231 breast",
    "OBSERVABLE": "TGI",
    "QUALIFIER": ">",
    "VALUE REPORTED": 100
  }
]

These entries and their values trace back to PubChem BioAssay (NCI).
